# Test system: SK-MEL-2 melanoma
# Assay Protocol: NCI-60 one-dose screen, 48 h (100 = growth as untreated, 0 = no growth, -100 = all killed)
# Measurement Parameters: 10 µM
# Experimental: Growth inhibition of the SK-MEL-2 human tumor cell line is measured as a screen for anti-cancer activity. Cells are grown in 96 well plates and exposed to the test compound for 48 hours. Compounds are tested at a single concentration, which is 10^-5 M for most compounds. The reported endpoint is percent growth (GI% or GIPRCNT), where numbers from 0 - 100% represent growth inhibition, and numbers from -100% - 0 represent cell death. For example, a value of 40 represents 60% growth inhibition. […]
About 83,000 compounds went through this panel and 20% of them were active in at least one assay; those are over-represented in the sample as a whole.
Measured Quantity: growth (%)
Unit % implied. Number only.

Solved entries:
COCCn1cc(-c2nc(-c3cccnc3)cs2)c2cc(F)ccc21; 106
CCOC(=O)CN(c1sc(C)c(C)c1C(=O)OCC)S(=O)(=O)c1ccc(C)cc1; 127
COc1ccc(NC(=O)C2CC3C=CC2C3)c([N+](=O)[O-])c1 (centres undefined); 104

Ask: Fill in: growth of COc1nc2c(c(=O)n1C)CN(c1ccccc1)C(=O)C(C)N2 (centres undefined) is ___
Reply: 90.8

Ask: Fill in: growth of COc1ccc(/C=C2\CCCC3=C2NC(N)=NC3c2ccc(OC)cc2)cc1 (centres undefined) is ___
Reply: 98.2

Ask: Fill in: growth of "O=[N+]([O-])c1cccc(/C=N/NC(=S)NC23CC4CC(CC(C4)C2)C3)c1" is ___
Reply: 96

Ask: Fill in: growth of "COc1cc(C)ccc1Oc1nc(Nc2ccc(N3CCOCC3)cc2)ncc1NC(=O)Nc1cc(C(F)(F)F)cc(C(F)(F)F)c1" is ___
Reply: 88.6

Ask: Fill in: growth of "CCOC(=O)c1cc(C(=O)c2ccc(OC)c(OC)c2)n2ccncc12" is ___
Reply: 96

Ask: Fill in: growth of "CS(=O)(=O)c1nccc(-c2c(-c3cccc(OCCN4CCOCC4)c3)nc3sccn23)n1" is ___
Reply: 102

Ask: Fill in: growth of "O=C(Nc1ccc(OCc2nnc(-c3ccc(Cl)cc3)o2)c(F)c1)Nc1ccc(Cl)c(C(F)(F)F)c1" is ___
Reply: -20.2

Ask: Fill in: growth of "CC[N+](CC)=c1ccc2nc3c(cc(NCc4ccccc4)c4ccccc43)oc-2c1" is ___
Reply: -80.1

Ask: Fill in: growth of "O=C(O)c1ccc(-n2cc(CNc3ccc(Cl)cc3)c(-c3ccccc3)n2)cc1" is ___
Reply: 78.5

Ask: Fill in: growth of "CC(C)(C)c1nn(-c2ccccc2)c2c1CC1(CN2Cc2ccc(Cl)cc2)C(=O)c2ccccc2C1=O" is ___
Reply: 92.4

###

# Test system: K-562 leukemia
# Assay Protocol: NCI-60 one-dose screen, 48 h (100 = growth as untreated, 0 = no growth, -100 = all killed)
# Measurement Parameters: 10 µM
This is part of a sample that, as a whole, favours compounds with a hit. Of some 83,000 tested, about 20% had one in any assay.
Reported growth values for a set of compounds
Unit % implied. Number only.

COc1cc2c3c(n([C@@H]4CCOC4)c(=O)c2cc1OC)-c1cc2c(cc1C3=O)OCO2; 55
COc1cc2cc(Oc3ccc(NC(=O)c4ccc(Cl)c(C(F)(F)F)c4)cc3)c(C)nc2cc1OC; 14.8
COc1cc2c(cc1NC(=O)C(F)(F)F)-c1ccc(NC(=O)C(F)(F)F)cc1C2; 100
O=[N+]([O-])c1cccc(/C=N/NC(=S)NC23CC4CC(CC(C4)C2)C3)c1; 89.2
O=C(/C=C/c1cccc(B(O)O)c1)c1cccc(B(O)O)c1; 11.5
Cc1ccc(C)c(COc2cc(NC(=O)c3ccc4c(c3)OCO4)ccc2N(C)S(C)(=O)=O)c1; 13.3

Ask: Fill in: growth of "COC(=O)c1c[nH]c2cc(OC(C)C)c(OC(C)C)cc2c1=O" is ___
Reply: 98.9

Ask: Fill in: growth of "COc1cc2c3c(n([C@H]4CCOC4)c(=O)c2cc1OC)-c1cc2c(cc1C3=O)OCO2" is ___
Reply: 59.6

Ask: Fill in: growth of "Cc1cc(NC(=O)c2ccc(C)c(Nc3nccc(-c4cccnc4)n3)c2)cc(-n2cnc(C)c2)c1" is ___
Reply: -36.2
